So I've got a bunch of molecules here, and I need their Ratio AChE/BuChE values.
target: butyrylcholine esterase (BuChE) (Mus musculus); construct: brain homogenate and serum of mouse were used as choline esterase enzyme sources; from tissue; host or cells: mouse serum; assay: In vitro assay for choline esterase inhibition (Ellman method), butyrylthiocholine substrate, mouse serum; format: biochemical; conditions: selectivity for BuChE inhibition: IC50 (AchE)/IC50 (BuChE)
Sequence (Q03311 30-603): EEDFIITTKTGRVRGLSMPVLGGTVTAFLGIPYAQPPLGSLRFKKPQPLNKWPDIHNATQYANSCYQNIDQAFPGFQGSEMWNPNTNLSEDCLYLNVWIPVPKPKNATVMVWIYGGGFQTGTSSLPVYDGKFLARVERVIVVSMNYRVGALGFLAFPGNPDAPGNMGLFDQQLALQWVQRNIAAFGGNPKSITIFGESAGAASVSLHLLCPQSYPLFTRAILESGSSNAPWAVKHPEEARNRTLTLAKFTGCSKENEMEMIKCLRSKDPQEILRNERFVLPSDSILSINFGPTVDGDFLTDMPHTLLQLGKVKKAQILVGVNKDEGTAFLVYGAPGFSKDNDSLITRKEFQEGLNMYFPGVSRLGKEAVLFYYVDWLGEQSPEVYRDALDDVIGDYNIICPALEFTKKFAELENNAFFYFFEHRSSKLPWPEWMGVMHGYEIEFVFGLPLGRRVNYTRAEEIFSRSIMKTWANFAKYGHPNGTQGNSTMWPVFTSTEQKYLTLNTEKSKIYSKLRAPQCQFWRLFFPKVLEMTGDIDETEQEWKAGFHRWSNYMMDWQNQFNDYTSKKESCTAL

Answered examples (5):
COC1C=CC(CNC(=O)Oc2ccc3c(c2)CCN3Cc2ccccc2)(OC)O1 (stereo not shown) [Example 122]; >210
CC(C)c1ccc(NC(=O)Oc2ccc3c(c2)CCN3CCc2ccccc2)cc1 [Example 3]; >83
Cc1ccc(NC(=O)Oc2ccc3c(c2)CCN3Cc2ccccc2)cc1 [Example 55]; >340
CCCN(CCC)C(=O)CC1c2cc(OC(=O)Nc3ccc(C(C)C)cc3)ccc2N(Cc2ccccc2)C1C (stereo not shown) [Example 162]; >240
O=C(NC1CCCc2ccccc21)Oc1ccc2c(c1)CCN2Cc1ccccc1 (stereo not shown) [Example 96]; >5900

Go through the items and report each one's Ratio AChE/BuChE.
1. CN(C)c1ccc(NC(=O)Oc2ccc3c(c2)CCN3Cc2ccccc2)cc1 [Example 133]
2. CC(C)c1ccc(NC(=O)Oc2ccc3c(c2)CCN3Cc2ccccn2)cc1 [Example 60]

// result
1: >2600; 2: >770
